TARGET UNDER TEST: Fibroblast growth factor receptor 1 (Homo sapiens, UniProt P11362)
Sequence (P11362 22-822 limits assumed): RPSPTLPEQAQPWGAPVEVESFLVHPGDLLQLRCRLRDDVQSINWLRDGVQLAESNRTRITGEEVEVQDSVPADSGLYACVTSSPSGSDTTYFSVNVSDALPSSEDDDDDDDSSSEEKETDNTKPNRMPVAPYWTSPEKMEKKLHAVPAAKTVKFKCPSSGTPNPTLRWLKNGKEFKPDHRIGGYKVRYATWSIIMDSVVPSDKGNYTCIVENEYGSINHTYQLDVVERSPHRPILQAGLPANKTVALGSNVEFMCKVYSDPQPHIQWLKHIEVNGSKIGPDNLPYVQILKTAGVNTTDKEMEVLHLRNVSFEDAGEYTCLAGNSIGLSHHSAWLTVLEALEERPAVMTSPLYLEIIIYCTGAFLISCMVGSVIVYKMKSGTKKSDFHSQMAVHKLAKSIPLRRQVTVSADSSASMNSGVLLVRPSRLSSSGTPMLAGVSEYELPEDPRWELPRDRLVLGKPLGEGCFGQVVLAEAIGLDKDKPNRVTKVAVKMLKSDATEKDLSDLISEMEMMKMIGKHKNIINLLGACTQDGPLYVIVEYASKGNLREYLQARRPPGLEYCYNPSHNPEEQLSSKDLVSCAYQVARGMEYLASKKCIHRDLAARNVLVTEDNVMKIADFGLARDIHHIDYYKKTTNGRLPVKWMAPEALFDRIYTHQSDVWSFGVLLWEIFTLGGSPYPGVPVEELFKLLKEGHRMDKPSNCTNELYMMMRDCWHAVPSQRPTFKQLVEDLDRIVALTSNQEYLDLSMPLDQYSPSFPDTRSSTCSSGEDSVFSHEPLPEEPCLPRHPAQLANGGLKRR
TEST SUMMARY: Inhibition of N-terminal GST-tagged human FGFR1 cytoplasmic domain (398-822 AA) expressed in baculovirus at 10 uM using FAM-labelled peptide as substrate pre-incubated for 10 mins followed by substrate addition by mobility shift assay relative to control
// label = 1 if inhibition is not less than 20%, otherwise 0

>>> group("COc1ccc(C(F)(F)F)cc1Nc1cc(NC(=O)Nc2c(Cl)cccc2Cl)ncn1")
1
>>> group("CCc1ccc(Nc2cc(NC(=O)Nc3c(Cl)cccc3Cl)ncn2)cc1")
1
>>> group("CC(C)(C)c1ccc(Nc2cc(NC(=O)Nc3c(Cl)cccc3Cl)ncn2)cc1")
1
>>> group("COc1ccc(F)cc1Nc1cc(NC(=O)Nc2c(Cl)cccc2Cl)ncn1")
0
>>> group("COc1ccc(Nc2cc(NC(=O)Nc3c(Cl)cccc3Cl)ncn2)cc1C")
1
>>> group("COc1cc(NC(=O)Nc2cc(Nc3cc(C(F)(F)F)ccc3OC)ncn2)cc(OC)c1")
0
>>> group("COc1cc(NC(=O)Nc2cc(Nc3cc(OC)cc(OC)c3)ncn2)cc(OC)c1")
0
>>> group("COc1cc(NC(=O)Nc2cc(Nc3cc(OC)ccc3OC)ncn2)cc(OC)c1")
0

# input for lookup
Decide: inhibition of `O=C(Nc1cc(Nc2ccc(F)c(Cl)c2)ncn1)Nc1c(Cl)cccc1Cl` >= 20%? 1
